Tested on: mESC Bmi1-luciferase reporter, firefly/renilla ratio, 24 h
Experiment: compounds raising Bmi1 reporter signal – mouse embryonic stem cells, luciferase, cherry-pick, esBAF inhibitor project, dose response (AID 651717);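 note: luciferase knocked into Bmi1 locus with EF-1a renilla as cell number control; rising ratio signals esBAF inhibition which derepresses Bmi1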
recordedMetric: AC40

Reference set (5 entries):
{"columns": ["molecule", "AC40"],
 "data": [
  ["Cc1cccc(-c2noc(Cc3ccc(Cl)cc3)n2)c1", "5.96 µM"],
  ["O=S(=O)(Nc1cccc(-c2ccc(N3CCCCCC3)nn2)c1)c1ccc(C(F)(F)F)cc1", "13.1 µM"],
  ["Cc1ccc(NC(=O)c2ccnc(C(C)(C)C)c2)cc1", "1.95 µM"],
  ["CCOC(=O)C1=C(CSc2nc(-c3ccccc3)ccc2C#N)OC(N)=C(C#N)C1c1cccnc1 (stereo unspecified)", "2.89 µM"],
  ["O=C(NC1CCCCC1)c1ccc2ccccc2c1O", "1.27 µM"]
]}

Notebook entry, mESC Bmi1-luciferase reporter, firefly/renilla ratio, 24 h assay: AC40 of O=C(Cn1cc(C(F)(F)F)cc(Cl)c1=O)NCc1ccc(F)cc1 = ?
7.38 µM
